The reported measurements were obtained from a collection of fitness landscapes (doi:10.1016/j.celrep.2020.107928).

B1: Caulobacter ParB omega fusion; a variant is named by its letters at X, in order, B8GW30 (parent)
chain: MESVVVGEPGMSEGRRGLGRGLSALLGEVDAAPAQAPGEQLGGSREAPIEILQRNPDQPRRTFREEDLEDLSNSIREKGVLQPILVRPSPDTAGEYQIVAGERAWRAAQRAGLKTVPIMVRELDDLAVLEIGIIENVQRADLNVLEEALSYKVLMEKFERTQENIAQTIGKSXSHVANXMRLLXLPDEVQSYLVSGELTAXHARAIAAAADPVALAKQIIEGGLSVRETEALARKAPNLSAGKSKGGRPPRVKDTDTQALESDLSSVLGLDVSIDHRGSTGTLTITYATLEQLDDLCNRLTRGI

Variants of: B1
Protocol: one-hybrid fitness for binding NBS DNA (the Noc-binding site; scaled: cognate 1, non-cognate 0); higher = stronger binding
Condition summary: with NBS DNA site
Whole data set: some 81,000 sequences, median “one-hybrid fitness for binding NBS DNA” near -0.1, cut for the highest 2% near 0.36. Many of the other results were omitted from the sample, so the highest values are more common in it than they were.
Readout kind: one-hybrid fitness for binding NBS DNA

Take a look at these entries with their results.
QLRN : 0.319
RLKP : ≤ 0.2
RVHM : ≤ 0.2

// switching to the query variant
INPUT: Given `RLVT` , state its recorded one-hybrid fitness for binding NBS DNA.
OUTPUT: 0.236
